Tested on: MDA-MB-468 breast
Experiment: NCI-60 one-dose screen, 48 h
Conditions: 10 µM unless noted
About 83,000 compounds went through this panel and 20% of them were active in at least one assay; those are over-represented in the sample as a whole. Calls of active or inactive are those of the source. The calls were made as follows: active = growth percent below 10; inactive = the rest.
The reply should name one outcome from active, inactive

# example entries with known answers
Prompt: Could you please tell me the result logged for COc1ccc(-c2nc(-c3nc4ccc(OC)cc4[nH]3)cc3c2[nH]c2ccccc23)cc1 in this assay?
Completion: inactive

Prompt: Could you please tell me the result logged for CN(C)CCN1C(=O)c2cccc3c(N)ccc(c23)C1=O in this assay?
Completion: inactive

Prompt: Could you please tell me the result logged for C/C=C(/C)C(=O)OC1C=C(CO)C(=O)C(OC(=O)/C(C)=C\C)C1C(C)C (stereo unspecified) in this assay?
Completion: active

Others:
Prompt: Could you please tell me the result logged for COc1cc2cn3c4ccc(O)cc4nc(N)c3c2cc1OC in this assay?
Completion: active

Prompt: Could you please tell me the result logged for O=C(/C=C/c1ccccn1)c1ccc(OCc2nnc(-c3ccc(Cl)cc3)o2)cc1 in this assay?
Completion: active

Prompt: Could you please tell me the result logged for CCOC(=O)c1cc2c(n1Cc1ccccc1OC)-c1oncc1CCC2 in this assay?
Completion: active
